Data credit: ChEMBL document CHEMBL1145069

molecular target: Stromelysin-1 (Homo sapiens)
Sequence (P08254 whole entry): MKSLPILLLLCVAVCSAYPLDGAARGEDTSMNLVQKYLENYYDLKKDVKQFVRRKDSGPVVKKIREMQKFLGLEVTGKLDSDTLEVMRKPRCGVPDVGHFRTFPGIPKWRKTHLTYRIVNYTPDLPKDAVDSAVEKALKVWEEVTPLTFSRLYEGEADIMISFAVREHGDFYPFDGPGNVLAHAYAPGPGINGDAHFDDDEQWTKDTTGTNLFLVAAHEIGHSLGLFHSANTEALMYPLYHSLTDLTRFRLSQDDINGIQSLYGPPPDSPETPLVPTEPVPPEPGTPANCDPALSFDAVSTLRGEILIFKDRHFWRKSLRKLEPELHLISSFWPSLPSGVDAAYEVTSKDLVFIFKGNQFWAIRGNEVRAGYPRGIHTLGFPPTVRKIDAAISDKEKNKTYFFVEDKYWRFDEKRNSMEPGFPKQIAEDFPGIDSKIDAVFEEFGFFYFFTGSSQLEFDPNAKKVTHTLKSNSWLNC
pIC50: −log10 of the molar value.
Below, each of the compounds is paired with its reported pIC50 value.
test_readout: pIC50

[
  {
    "compound": "O=C(O)[C@H]1[C@H](CN2NNc3ccsc3C2=O)CC[C@@H]1Sc1ccc(-c2ccc(Cl)cc2)cc1",
    "censoring_qualifier": "=",
    "observed_measurement": 6.67
  },
  {
    "compound": "O=C(NO)C(CCn1nnc2ccccc2c1=O)CSc1ccc(-c2ccc(Cl)cc2)cc1 (stereo not given)",
    "censoring_qualifier": "=",
    "observed_measurement": 8.00
  },
  {
    "compound": "O=C(O)[C@H]1[C@H](CN2C(=O)c3ccccc3C2=O)CC[C@@H]1S(=O)(=O)CCc1ccc(-c2ccc(Cl)cc2)cc1",
    "censoring_qualifier": "=",
    "observed_measurement": 7.19
  },
  {
    "compound": "O=C(O)[C@H]1[C@H](Cn2nnc3ccccc3c2=O)CC[C@@H]1Sc1ccc(-c2ccncc2)cc1",
    "censoring_qualifier": "=",
    "observed_measurement": 5.92
  },
  {
    "compound": "O=C(O)[C@H]1[C@H](Cn2nnc3ccccc3c2=O)CC[C@@H]1Sc1ccc(-c2nccs2)cc1",
    "censoring_qualifier": "<",
    "observed_measurement": 4.00
  },
  {
    "compound": "O=C(O)[C@H]1[C@H](CN2C(=O)c3ccccc3S2(=O)=O)CC[C@@H]1Sc1ccc(-c2ccc(Cl)cc2)cc1",
    "censoring_qualifier": "=",
    "observed_measurement": 6.32
  },
  {
    "compound": "O=C(O)[C@H]1[C@H](Cn2nnc3ccccc3c2=O)CC[C@@H]1S(=O)(=O)CCc1ccc(-c2ccc(Cl)cc2)cc1",
    "censoring_qualifier": "=",
    "observed_measurement": 6.60
  },
  {
    "compound": "O=C(O)[C@H]1[C@H](Cn2nc3n(c2=O)CCCCC3)CC[C@@H]1Sc1ccc(-c2ccc(Cl)cc2)cc1",
    "censoring_qualifier": "=",
    "observed_measurement": 4.74
  },
  {
    "compound": "O=C(O)[C@H]1[C@H](CN2C(=O)c3ccccc3C2=O)CC[C@@H]1Sc1ccc(-c2ccccc2)cc1",
    "censoring_qualifier": "=",
    "observed_measurement": 6.56
  },
  {
    "compound": "O=C(O)[C@H]1[C@H](CN2C(=O)c3ccccc3C2=O)CC[C@@H]1SCc1ccc(-c2ccccc2)cc1",
    "censoring_qualifier": "=",
    "observed_measurement": 5.52
  }
]
